conditions: in ethylene glycol, 298.15 K
reportedEndpoint: solubility (mole fraction)
// response body must contain only the number

Fill in the blank: the reported solubility (mole fraction) of CN(Cc1ccccc1)CN1C(=O)C(=NNC(=O)c2ccccc2OCc2ccccc2)c2ccccc21 is ____.
0.000304

###

conditions: in ethylene glycol, 303.15 K
reportedEndpoint: solubility (mole fraction)
Write the number on its own, no unit after it.

solubility (mole fraction) for CN(Cc1ccccc1)CN1C(=O)C(=NNC(=O)c2ccccc2OCc2ccccc2)c2ccccc21 ?
0.000416

###

conditions: in n-butanol, 313.15 K
reportedEndpoint: solubility (mole fraction)
Provide a numeric answer; units are not to be included.

Dear colleague, I am looking for the recorded solubility (mole fraction) of the following compound: CN(Cc1ccccc1)CN1C(=O)C(=NNC(=O)c2ccccc2OCc2ccccc2)c2ccccc21
0.00122
